target: cloned human V1a receptor (Homo sapiens, UniProt P37288); construct: host or cells: human brain astrocytoma 1321N1 cells; assay: in vitro functional calcium mobilisation assay (FLIPR), antagonist activity, 1321N1 cells, 250 pM AVP; format: cell-based; details: functional pKi derived from pIC50 (Equation 1), FLIPR Ca2+ mobilisation, 1321N1 cells expressing cloned human V1a receptor, read-out: Mean fpKi (Human V1a) (converted)
Sequence (P37288 whole entry): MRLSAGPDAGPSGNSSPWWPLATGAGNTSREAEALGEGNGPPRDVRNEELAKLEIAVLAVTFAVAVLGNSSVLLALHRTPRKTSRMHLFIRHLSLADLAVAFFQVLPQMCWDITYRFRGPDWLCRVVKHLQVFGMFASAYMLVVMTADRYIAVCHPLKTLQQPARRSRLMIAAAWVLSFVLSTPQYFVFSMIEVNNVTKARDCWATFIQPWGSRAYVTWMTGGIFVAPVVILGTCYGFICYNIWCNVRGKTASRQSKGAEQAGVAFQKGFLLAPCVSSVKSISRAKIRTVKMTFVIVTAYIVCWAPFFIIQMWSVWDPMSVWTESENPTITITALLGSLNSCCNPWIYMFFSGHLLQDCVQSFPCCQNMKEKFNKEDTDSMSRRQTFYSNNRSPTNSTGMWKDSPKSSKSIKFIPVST
property measured: Ki (nM)

Some solved entries appear below for comparison.
1) O=C(C1CCN(c2ccccn2)CC1)N1CCc2nc(N3CCOCC3)[nH]c2-c2cc(Cl)ccc21 = 2.51
2) Cc1ccnc(N2CCC(C(=O)N3Cc4cnn(C)c4Nc4cc(C)ccc43)CC2)c1 = 2.4
3) Cc1nc2c([nH]1)-c1cc(Cl)ccc1N(C(=O)C1CCN(c3cccc(Cl)c3)CC1)CC2 = 69.2
4) Cn1ncc2c1Nc1cc(F)ccc1N(C(=O)C1CCN(c3ncccn3)CC1)C2 = 145

(P) CCCc1ccc(N2CCC(C(=O)N3Cc4cccn4Cc4ccccc43)CC2)cc1
(Q) Cc1cncc(N2CCC(C(=O)N3CCc4nc(N5CCOCC5)[nH]c4-c4cc(C)ccc43)CC2)c1
Ask | Between the two listed entries P and Q , which has its Ki at the higher number? Give the chosen item's label as your response.
Reply | Q
(Q: 6.61 nM, P: 3.89 nM)

---

target: cloned human V1a receptor (Homo sapiens); construct: host or cells: human brain astrocytoma 1321N1 cells; assay: in vitro functional calcium mobilisation assay (FLIPR), antagonist activity, 1321N1 cells, 250 pM AVP; type: cell-based; details: functional pKi derived from pIC50 (Equation 1), FLIPR Ca2+ mobilisation, 1321N1 cells expressing cloned human V1a receptor, read-out: Mean fpKi (Human V1a) (converted)
property measured: Ki (µM)

Some solved entries appear below for comparison.
1. COc1ccccc1N1CCC(C(=O)N2CCc3nc(C)[nH]c3-c3cc(Cl)ccc32)CC1 = 0.0229
2. O=C(C1CCN(c2cccc([N+](=O)[O-])c2)CC1)N1Cc2cccn2Cc2ccccc21 = 0.017
3. Cc1ccc(N2CCC(C(=O)N3Cc4cnn(C)c4Nc4cc(C)ccc43)CC2)cc1 = 0.000324
4. NCc1ccccc1N1CCC(C(=O)N2Cc3cccn3Cc3ccccc32)CC1 = 0.0288
5. O=C(C1CCN(c2ccccn2)CC1)N1CCc2nc(Cc3ccccc3)[nH]c2-c2cc(Cl)ccc21 = 0.0794
6. CCc1nc2c([nH]1)-c1cc(Cl)ccc1N(C(=O)C1CCN(c3ccccc3)CC1)CC2 = 0.00617
7. Cc1ccnc(N2CCC(C(=O)N3Cc4cnn(C)c4Nc4cc(Cl)ccc43)CC2)c1 = 0.002
8. O=C(C1CCN(c2ccccc2)CC1)N1CCc2nc(-c3ccccc3F)[nH]c2-c2cc(Cl)ccc21 = 0.0813
9. Cc1ccc2c(c1)-c1[nH]c(N3CCOCC3)nc1CCN2C(=O)C1CCN(c2ccc(C#N)cn2)CC1 = 0.0977
10. CCCc1nc2c([nH]1)-c1cc(C)ccc1N(C(=O)C1CCN(c3cc(C)ccn3)CC1)CC2 = 0.00204

(I) COc1ccc(N2CCC(C(=O)N3Cc4cnn(C)c4Nc4cc(C)ccc43)CC2)cc1
(II) CCc1ccc(N2CCC(C(=O)N3Cc4cccn4Cc4ccccc43)CC2)cc1
(III) CCn1ncc2c1Nc1cc(F)ccc1N(C(=O)C1CCN(c3nccc(C(F)(F)F)n3)CC1)C2
Ask | # rank_down: sort by Ki, max first Put the labels in the requested order and list them out.
Reply | III, I, II
(III: 0.575 µM, I: 0.00309 µM, II: 0.00155 µM)

---

target: cloned human V1a receptor (Homo sapiens); construct: host or cells: human brain astrocytoma 1321N1 cells; experiment: in vitro functional calcium mobilisation assay (FLIPR), antagonist activity, 1321N1 cells, 250 pM AVP; format: cell-based; settings: functional pKi derived from pIC50 (Equation 1), FLIPR Ca2+ mobilisation, 1321N1 cells expressing cloned human V1a receptor, read-out: Mean fpKi (Human V1a) (converted)
property measured: Ki (nM)

Some solved entries appear below for comparison.
1. O=C(C1CCN(c2ccccn2)CC1)N1CCc2nc(-c3cccc(F)c3)[nH]c2-c2cc(Cl)ccc21 = 97.7
2. Cc1ccc(N2CCC(C(=O)N3CCc4nc(N5CCCC5)[nH]c4-c4cc(C)ccc43)CC2)nc1 = 7.59
3. COc1cccnc1N1CCC(C(=O)N2Cc3cnn(C)c3Nc3cc(Cl)ccc32)CC1 = 19.1
4. COc1cccc(N2CCC(C(=O)N3CCc4nc(N5CCOCC5)[nH]c4-c4cc(Cl)ccc43)CC2)n1 = 1.91
5. O=C(C1CCN(c2ccccc2)CC1)N1Cc2cccn2Cc2cc(F)ccc21 = 0.794
6. O=C(C1CCN(c2ccncc2)CC1)N1Cc2cccn2Cc2ccccc21 = 1480
7. Cc1ccc(N2CCC(C(=O)N3CCc4nc(C)[nH]c4-c4cc(Cl)ccc43)CC2)cc1 = 1.26
8. O=C(C1CCN(c2ccccn2)CC1)N1CCc2nc(N3CCOCC3)[nH]c2-c2cc(F)ccc21 = 7.94

(A) Cc1ccc2c(c1)-c1[nH]c(C3CCOCC3)nc1CCN2C(=O)C1CCN(c2ncccc2C)CC1
(B) Cc1ccc2c(c1)-c1[nH]c(C3CC3)nc1CCN2C(=O)C1CCN(c2ccccn2)CC1
Ask | Would you mind telling me which has the lower recorded Ki between A and B ? Give the chosen item's label as your response.
Reply | A

(a) Cc1ccc2c(c1)-c1nc(CC(C)C)[nH]c1CCN2C(=O)C1CCN(c2ccccn2)CC1
(b) Cc1cccc(N2CCC(C(=O)N3CCc4nc(N5CCOCC5)[nH]c4-c4cc(F)ccc43)CC2)n1
(c) Cn1ncc2c1Nc1cc(Cl)ccc1N(C(=O)C1CCN(c3ccc(C(F)(F)F)cc3)CC1)C2
Ask | Please put the entries in order of rising Ki. Put the labels in the requested order and list them out.
Reply | b, c, a

(I) Cc1ccc2c(c1)Nc1c(cnn1C)CN2C(=O)C1CCN(c2ncccc2C)CC1
(II) O=C(C1CCN(c2ccccc2)CC1)N1CCc2nc(C3CC3)[nH]c2-c2cc(Cl)ccc21
Ask | Between the two listed entries I and II , which has its Ki at the higher number? Give the chosen item's label as your response.
Reply | II

(a) O=C(C1CCN(c2cccnc2)CC1)N1Cc2cccn2Cc2ccccc21
(b) O=C(C1CCN(c2ncccn2)CC1)N1Cc2cccn2Cc2ccccc21
Ask | Would you mind telling me which has the lower recorded Ki between a and b ? Give the chosen item's label as your response.
Reply | a
(a: 31.6 nM, b: 117 nM)

---

target: cloned human V1a receptor (Homo sapiens, UniProt P37288); construct: host or cells: human brain astrocytoma 1321N1 cells; test: in vitro functional calcium mobilisation assay (FLIPR), antagonist activity, 1321N1 cells, 250 pM AVP; type: cell-based; settings: functional pKi derived from pIC50 (Equation 1), FLIPR Ca2+ mobilisation, 1321N1 cells expressing cloned human V1a receptor, read-out: Mean fpKi (Human V1a) (converted)
property measured: Ki (nM)

(I) Cc1ccnc(N2CCC(C(=O)N3CCc4nc(N5CCOCC5)[nH]c4-c4ccccc43)CC2)c1 [Example 11]
(II) CCCc1nc2c([nH]1)-c1cc(C)ccc1N(C(=O)C1CCN(c3ccc(C)cn3)CC1)CC2 [Example 23]
Ask | Would you mind telling me which has the lower recorded Ki between I and II ? Give the chosen item's label as your response.
Reply | II

---

target: cloned human V1a receptor (Homo sapiens); construct: host or cells: human brain astrocytoma 1321N1 cells; experiment: in vitro functional calcium mobilisation assay (FLIPR), antagonist activity, 1321N1 cells, 250 pM AVP; type: cell-based; details: functional pKi derived from pIC50 (Equation 1), FLIPR Ca2+ mobilisation, 1321N1 cells expressing cloned human V1a receptor, read-out: Mean fpKi (Human V1a) (converted)
property measured: Ki (nM)

Some solved entries appear below for comparison.
1) Cc1cccnc1N1CCC(C(=O)N2Cc3cnn(C)c3Nc3cc(Cl)ccc32)CC1 = 2.69
2) Cc1ccc2c(c1)-c1[nH]c(N3CCOCC3)nc1CCN2C(=O)C1CCN(c2ncccc2C)CC1 = 1.45
3) Nc1ccc(N2CCC(C(=O)N3Cc4cccn4Cc4ccccc43)CC2)cc1 = 2.51
4) CCc1nc2c([nH]1)-c1cc(Cl)ccc1N(C(=O)C1CCN(c3ccccn3)CC1)CC2 = 13.5

(I) CCn1ncc2c1Nc1cc(F)ccc1N(C(=O)C1CCN(c3ccc(C)cn3)CC1)C2
(II) Cc1ccc(N2CCC(C(=O)N3Cc4cnn(Cc5ccccc5)c4Nc4cc(C)ccc43)CC2)nc1
(III) Cc1ccc2c(c1)Nc1c(cnn1C)CN2C(=O)C1CCN(c2ccccn2)CC1
Ask | Please put the entries in order of rising Ki. Put the labels in the requested order and list them out.
Reply | I, III, II
